- Test system: TRPC4 (mouse), co-expressed with 5HT1a in HEK293
- ASSAY PROTOCOL: enhancement of serotonin-evoked TRPC4 response – cell-based, second counter screen, HEK293 TRPC4/5HT1a, Fluo-4, counter-screen for TRPC4 potentiator project, confirmation (AID 434979)
- CONDITIONS USED: Fluo-4 calcium flux, at 10 µM, serotonin added at its EC20 dose
The source made the active and inactive calls.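 How the source made its calls: active means signal rise over 3 SD above mean of control wells given weak agonist, in both repeats and first screen; inactive means the rest.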
API: response.call in active, inactive

Previously resolved entries follow.
{"COMPOUND": "CCCCN(CC)CCCNC(=O)c1csc2c1CCCCC2", "TGT": "TRPC4 (mouse), co-expressed with 5HT1a in HEK293", "CAT": "inactive"}
{"COMPOUND": "COc1ccc(S(=O)(=O)N2CCCCCC2)cc1C(=O)N(C)Cc1ccc(Cl)cc1Cl", "TGT": "TRPC4 (mouse), co-expressed with 5HT1a in HEK293", "CAT": "active"}
{"COMPOUND": "Cc1ccc(NC(=S)NC2CC3CCC(C2)N3Cc2ccco2)c(C)c1 (stereo unspecified)", "TGT": "TRPC4 (mouse), co-expressed with 5HT1a in HEK293", "CAT": "inactive"}
{"COMPOUND": "c1csc(-c2nc(NCC3CCCO3)c3ccccc3n2)c1 (stereo unspecified)", "TGT": "TRPC4 (mouse), co-expressed with 5HT1a in HEK293", "CAT": "inactive"}
{"COMPOUND": "CC(C)(C)C(=O)/C=c1\\s/c(=C\\c2ccc(-c3ccc([N+](=O)[O-])cc3)o2)c(=O)n1CC(=O)NC(N)=O", "TGT": "TRPC4 (mouse), co-expressed with 5HT1a in HEK293", "CAT": "active"}

QUERY: Name the outcome recorded for Cc1ccc(CNC(C)c2ccccc2)cc1 (stereo unspecified) in the assay.
RESULT: inactive

----------
- TGT: Short transient receptor potential channel 6 (Mus musculus)
- ASSAY PROTOCOL: positive modulators of mouse TRPC6 channel – HEK293 cells, membrane potential dye, duplicate, selectivity assay for TRPC4 potentiator project, confirmation (AID 434952)
- CONDITIONS USED: HEK293 TRPC6, membrane potential dye fluorescence, at 10 µM, maximal acetylcholine added after compound
Calls of active or inactive are those of the source.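 How the source made its calls: active means compound raising the membrane signal above positive-control mean plus 3 SD in both repeats, and a primary screen hit; inactive means the rest.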
API: response.call in active, inactive

Previously resolved entries follow.
{"COMPOUND": "O=C(NCCN1CCOCC1)c1ccc2c(c1)N(Cc1ccc(F)cc1)C(=O)CS2", "CAT": "inactive"}
{"COMPOUND": "CC(=O)N1CCN(c2ccccc2NC(=O)c2cccs2)CC1", "CAT": "inactive"}
{"COMPOUND": "CCOC(=O)CC(NC(=O)c1cc2cc(Br)ccc2oc1=O)c1cccc([N+](=O)[O-])c1 (centres undefined)", "CAT": "inactive"}
{"COMPOUND": "O=C(NCc1ccccc1Cl)/C(=C\\c1cccnc1)NC(=O)c1ccccc1", "CAT": "inactive"}
{"COMPOUND": "O=C(O)c1ccc(NC(=O)c2cn(-c3ccccc3)nc2-c2ccc(Br)cc2)cc1", "CAT": "inactive"}

QUERY: Name the outcome recorded for O=C(NCCCN1CCOCC1)C1CCN(S(=O)(=O)c2c(Cl)cccc2Cl)CC1 in the assay.
RESULT: inactive

QUERY: Name the outcome recorded for CCCCCCc1cc2cc(-c3nnc(-c4cc(OC)c(OC)c(OC)c4)o3)c(=O)oc2cc1O in the assay.
RESULT: inactive

QUERY: Name the outcome recorded for O=C(COC(=O)c1c(Cl)cccc1Cl)Nc1ccccc1Br in the assay.
RESULT: inactive

QUERY: Name the outcome recorded for Cn1c(N2CCN(C(=O)Nc3ccc(C(F)(F)F)cc3)CC2)nc2ccccc21 in the assay.
RESULT: inactive

QUERY: Name the outcome recorded for CC(=O)n1cc([C@@H]2C=C(C(=O)NCc3ccccc3)O[C@H](OCc3ccc(CO)cc3)C2)c2ccccc21 in the assay.
RESULT: inactive

QUERY: Name the outcome recorded for CN1CCN(Cc2nc3ccccc3n2C)CC1CCO (centres undefined) in the assay.
RESULT: inactive

QUERY: Name the outcome recorded for Cc1ccc(CN(C(=O)c2cc(=O)c3cc(Cl)c(C)cc3o2)C2CCS(=O)(=O)C2)cc1 (centres undefined) in the assay.
RESULT: inactive

QUERY: Name the outcome recorded for COc1ccc(C(=O)C2CCCN(C3Cc4ccccc4C3)C2)cc1OC (centres undefined) in the assay.
RESULT: inactive

----------
- TGT: Short transient receptor potential channel 4 (Mus musculus)
- ASSAY PROTOCOL: blockers of DAMGO-evoked TRPC4 calcium flux – cell-based, second round, Fluo4, HEK293 TRPC4beta/mu-opioid, 1 µM, confirmation (AID 2637)
- CONDITIONS USED: at 1 µM
Active and inactive are the calls of the source.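 The calls were made as follows: active = calcium signal ratio cut to more than 3 SD under the fully stimulated control mean yet still positive, in both repeats and the primary screen; inactive = the rest.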
API: response.call in active, inactive

Previously resolved entries follow.
{"MOLECULE": "CCCn1c(SCC(=O)N2c3ccccc3Sc3ccccc32)nc2c1c(=O)n(C)c(=O)n2C", "CAT": "inactive"}
{"MOLECULE": "COc1cc2ccccc2c2c1CCCC2=O", "CAT": "inactive"}
{"MOLECULE": "O=C(/C=C/c1ccc(Cl)cc1)N(Cc1ccccc1)C1CCS(=O)(=O)C1 (configuration not stated)", "CAT": "inactive"}

QUERY: Name the outcome recorded for Cc1cc(C(=O)N/N=C\c2cc(C(C)(C)C)ccc2O)n[nH]1 in the assay.
RESULT: inactive

QUERY: Name the outcome recorded for CCOC(=O)C1(Cc2cccc(OC)c2)CCN(Cc2ccc(OC)c(O)c2)CC1 in the assay.
RESULT: inactive

QUERY: Name the outcome recorded for COc1cccc(N2CC(O)=C(c3nc4ccccc4c(=O)[nH]3)C2=N)c1 in the assay.
RESULT: active

QUERY: Name the outcome recorded for Nc1cc(C(F)(F)F)ccc1Nc1ccccc1 in the assay.
RESULT: inactive

----------
- Test system: TRPC4 (mouse), co-expressed with 5HT1a in HEK293
- ASSAY PROTOCOL: enhancement of serotonin-evoked TRPC4 response – cell-based, second counter screen, HEK293 TRPC4/5HT1a, Fluo-4, counter-screen for TRPC4 potentiator project, confirmation (AID 434979)
- CONDITIONS USED: Fluo-4 calcium flux, at 10 µM, serotonin added at its EC20 dose
Active and inactive are the calls of the source.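 Rule for the calls: active = signal rise over 3 SD above mean of control wells given weak agonist, in both repeats and first screen; inactive = the rest.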
API: response.call in active, inactive

{"COMPOUND": "CC(Oc1ccc(Cl)cc1Cl)C(=O)N(C)c1ccccc1 (stereo not given)", "CAT": "inactive"}
{"COMPOUND": "CCOC(=O)c1c(NC(=O)C(C)Sc2nnc(C)c(=O)[nH]2)sc2c1CCCC2 (stereo not given)", "CAT": "inactive"}
{"COMPOUND": "Cn1c(-c2ccccc2)cnc1NCc1ccc(F)cc1", "CAT": "inactive"}
{"COMPOUND": "O=C(c1ccc(Cl)c(Cl)c1)N(Cc1ccco1)c1ccc(O)cc1", "CAT": "inactive"}
{"COMPOUND": "C(#Cc1ccccc1)C[N+]1(CC#Cc2cccc3ccccc23)CCCC1", "CAT": "inactive"}
{"COMPOUND": "CCCCN(C)CCNC(=O)C1CCCN(S(=O)(=O)c2cccc3nsnc23)C1 (stereo not given)", "CAT": "active"}

QUERY: Name the outcome recorded for COc1ccc(C(=O)NNC(=S)NC(=O)c2cccs2)cc1 in the assay.
RESULT: inactive

QUERY: Name the outcome recorded for Cc1ccc(-c2cn(-c3ccccc3)c(SCC(N)=O)n2)cc1C in the assay.
RESULT: active

QUERY: Name the outcome recorded for COc1ccc(C(CNCC(O)COc2c(C)ccc(C)c2C)N(C)C)cc1 (stereo not given) in the assay.
RESULT: inactive

QUERY: Name the outcome recorded for Cc1ccc(S(=O)(=O)c2c(C(=O)c3ccccc3)cnc3cc4c(cc23)OCCO4)cc1 in the assay.
RESULT: active

QUERY: Name the outcome recorded for NS(=O)(=O)c1ccc(Nc2nc(-c3ccc(O)cc3O)cs2)cc1 in the assay.
RESULT: inactive

QUERY: Name the outcome recorded for COc1ccccc1N1CCN(Cc2cc(=O)c(OCC(=O)NC3CCCC3)co2)CC1 in the assay.
RESULT: inactive

QUERY: Name the outcome recorded for COC(=O)c1ccc(COc2ccc(/C=N/Nc3nc(C)cc(=O)[nH]3)cc2)cc1 in the assay.
RESULT: inactive

QUERY: Name the outcome recorded for CCCCn1c(NCc2ccc(N(C)C)cc2)nc2ccccc21 in the assay.
RESULT: inactive

QUERY: Name the outcome recorded for N=c1c2c(n(Cc3ccccc3)c3c1CCC3)CCC2 in the assay.
RESULT: inactive

----------
- Test system: transient receptor potential cation channel C4 beta (TRPC4), mouse
- ASSAY PROTOCOL: TRPC4 cation channel opening, second retest – cell-based, second round, Fluo4, HEK293 TRPC4beta/mu-opioid, 1 µM, confirmation (AID 2461)
- CONDITIONS USED: Fluo4 calcium fluorescence, at 1 µM
The source made the active and inactive calls.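 Rule for the calls: active = primary screen active and over 50% activation in each of two duplicate runs; inactive = the rest.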
API: response.call in true (1) = active, false (0) = inactive

Previously resolved entries follow.
{"MOLECULE": "O=S(=O)(NCCc1csc(-c2ccccc2)n1)c1cccnc1", "CAT": "false (0)"}
{"MOLECULE": "CCCCc1nc(SCCOC)c2c(=O)n(C)c(=O)n(C)c2n1", "CAT": "false (0)"}
{"MOLECULE": "Nc1cc(=O)nc(SCC(=O)N2CCN(c3ccccc3)CC2)n1-c1ccc(F)cc1", "CAT": "false (0)"}
{"MOLECULE": "CCOC(=O)c1c(-c2cccc(C)c2)csc1NC(=O)C1CC=CCC1C(=O)O (stereo not given)", "CAT": "false (0)"}
{"MOLECULE": "CCOc1cc(CNCCCN2CCOCC2)cc(Br)c1OCc1ccccc1Cl", "CAT": "false (0)"}
{"MOLECULE": "COc1ccccc1N1CCc2c(C)nc3c(OC)cccc3c21", "CAT": "false (0)"}
{"MOLECULE": "CCSC1=N/C(=C\\c2ccc(OC)cc2)C(=O)N1", "CAT": "false (0)"}
{"MOLECULE": "CCc1ccc(/C=C2/SC(=S)N(CCCC(=O)Nc3ccccc3C(=O)O)C2=O)cc1", "CAT": "false (0)"}
{"MOLECULE": "CN1CCCC(OC(=O)c2cc(Br)ccc2Cl)C1 (stereo not given)", "CAT": "true (1)"}
{"MOLECULE": "O=C(c1cccc(C(F)(F)F)c1)C1CCCN(Cc2cccn2-c2ccccn2)C1 (stereo not given)", "CAT": "false (0)"}

QUERY: Name the outcome recorded for CCN(Cc1ccccc1)S(=O)(=O)c1ccc(C(=O)N(CCCN(C)C)c2nc3c(F)cccc3s2)cc1 in the assay.
RESULT: false (0)

QUERY: Name the outcome recorded for CC1(C(=O)OCc2cc(=O)n3cc(Br)ccc3n2)CC1(Cl)Cl (stereo not given) in the assay.
RESULT: false (0)

QUERY: Name the outcome recorded for O=c1c(Cc2ccccc2)c(O)ccn1CCc1cnc[nH]1 in the assay.
RESULT: false (0)

QUERY: Name the outcome recorded for CC1(C#CC[N+]2(C)CCCCC2)CCC2C(O1)c1ccccc1OC2(C)C (stereo not given) in the assay.
RESULT: false (0)

QUERY: Name the outcome recorded for O=C(/C=C/c1ccccc1Cl)N(c1ccccn1)C1CCCCC1 in the assay.
RESULT: false (0)

QUERY: Name the outcome recorded for CN1CCN(CCCNC(=O)CN2C(=O)COc3ccccc32)CC1 in the assay.
RESULT: false (0)

QUERY: Name the outcome recorded for OCC1(CC2CCCCO2)CCN(Cc2ccccc2-c2ccco2)CC1 (stereo not given) in the assay.
RESULT: false (0)

QUERY: Name the outcome recorded for Cc1ccc(-n2cc(CNC(C)c3cnn(C)c3)c(-c3ccc(F)cc3)n2)cc1 (stereo not given) in the assay.
RESULT: true (1)

QUERY: Name the outcome recorded for COc1ccc(C)c(NC(=O)NCCc2cnc[nH]2)c1 in the assay.
RESULT: false (0)

QUERY: Name the outcome recorded for Cc1onc(-c2ccccc2Cl)c1C(=O)N1CCN(C/C=C/c2ccccc2)CC1 in the assay.
RESULT: false (0)
